# assay summary: yeast display, Sf9 membrane polyspecificity reagent, FACS + sequencing; frameworks hold sequencing errors
readout type: polyreactivity (PSR sort gate)

Some sequences with recorded polyreactivity (PSR sort gate):
QVQVVESGGGLVQAGGSLRLSCAASGRIFNYYAMGWYRPAPGKERELVATITGGGRTYYADSVKGRFTISRDNGMKTVYLQMNSLKPEDSAVYYCAAQYGGLSYRYDYWGQGTQVTVSS; high polyreactivity
LVQLLESGGGLVQAGGSLRLSCAASGRIFTGYALGWDRQAPGKDRELVASITWRGASTYYADSVKGRFTISRDNAKTTVFLQKNCLNPEDTAVDYCNVGASARKAYEYWGQGTQVTVSS; high polyreactivity
QVQLVESGRGLVHAGGSIRLSCAASGRIFGLYAIGWYRQAPGKERELVASINSRGGSTNYAVSVKGRFTISRDNAMNTVYLQMNSLKPEDTAVYYCNARIVYAYQRYYWGQGTHVTVSS; high polyreactivity
QVQLVESGGGLVQAGGSLRLSCAASGFTFARYVMGWSRQAPGKERELVAGITYRVGSTYYADSVKGRFSISRDNAKNTVYLQMNSLKPEDTAVYYCAAYLSTGYYYWGQGTQVTVSS; high polyreactivity
QVQLVESGGGLVQAGGSLRLSCAASGGTIYRNAMGWYRQAPGKEREMVASITRGGSTTYADSVKGRFTISRDNAKNTVYLQMNCLKPEATAVYYCNAPGQQRYDSWGQGTQVTVSS; high polyreactivity
QVQLVESGGGLVQAGGSLRLSCAASGFIFSSYAMGWYRQAPGKERELVARISLSGGSTFYADSVKGRFTISRDNAKNTVYLQMNSLKPEDTAVYYCAARDFSTHFSPMDYWGQGPQVTVSS; low polyreactivity

--- query ---
The reported value for QVQLVESGGGLVQAGASLRISCAASGNILPVYAMGWYRQAPGKEREFVAAITSRGGSTYYADSVKGRFTISRDNAKNTVYLQMNSLKPEDTAVYYCAAKYLRAYGYWGQGTQVTVSS in terms of polyreactivity (PSR sort gate) is high polyreactivity

====

# assay summary: yeast display, Sf9 membrane polyspecificity reagent, FACS + sequencing; frameworks hold sequencing errors
readout type: polyreactivity (PSR sort gate)

# count of solved cases: 4
QVQLVESGGGLVQAGGSLRLSCAASGFIFAYYAMGWYRQATGKERELVAGITRGSSTYYADSVKGRFTISRDNAKNTVYLQMNSLKPEDTAVYYCARGYTWFYAVWPEYDYWGEGTQVTVSS; high polyreactivity
QVQLVESGGGLFQAGGSLRLSCAASGRIFGWYAMGWYRQAPGKDRELVAAMSSSTSTYYADSVKGRFTISRDNEKNTVYLEMNSLKPEDTAVYYCNADWYYQRGQNYWFRYDYWGQGTQVTVCS; high polyreactivity
QVQLVESGGGLVQAGGSLRLSCAASGVNAMGWYRPAPGKEREFVAAITSIGGSTYYADSVKGRFTISRDNAKNTVYLQMNSLKPEDTAVYYCNTDRGPVKVSPLYVSWGQGTQVTLSS; low polyreactivity
QVQLVESGGGLVQAGGSLRLSCAASGFTFPVYAMGWYREAPGKERELVAAISTSAGSTYYADSVKGRFSISRDNAKNTVYLQLNSLKPEDTAVYYCNADVAGGYGWKSYHGYDYWGQGTQVTVSS; high polyreactivity

Given item QVQLQESGGGLMQAGGSQRLSCAASGSISYYSDMGWYRQAPGKEREFVAGIGYGTTTNYADSVKGRFTTSRDNAKNTVYLQMISMKPEDSAVYYCAAYQGNGYEFYYWGQGTQVTVRS , the value recorded as its polyreactivity (PSR sort gate) is low polyreactivity

polyreactivity (PSR sort gate) reported for this sequence QVQLVESGGGLVQAGGSLRLSCVASGRTFSRYAMGWYRQAPGKERELVAAISRRGGSTYYADSVKGRFTISRDNAKNTVYLQMNSLKPEDTAVYYCAAGYITWGSGNWVVTPYDYWGLGTQVTVSS : high polyreactivity

Lab note: QVQLVESGGGLVQAGGSLRLSCDASGSIFNYYAMGWYRQAPGKERELVATITRGGSTYYADSVKGRFTISRDNAKNTVYLQMNILKPEDTAVYYCAKVGRSTAYQNGYDYWGQGTQVTVSS gave polyreactivity (PSR sort gate) of low polyreactivity

# polyreactivity (PSR sort gate) of QVQLVESGGGLDQAGGSLRLSCAASGGILVIYAMGWYRQEPGKERELVAAINVSGGSTYYADSVKGRFTISRDNAKNTVYLQMNSLKPEDTAVYYCAALGPYLDYGVQYGYWGQGTQVTVSS = low polyreactivity

// sample QVQLVESGGGLVQAGGSLRLSCAASGGIFYFYAMGWSRQAPGKERELVAAISSNGGRTYYADSVKGRFTISRDNAKNTVYLQMNSLKPEDTAVYYCNAVSRVSDRHLATYDYWGQGTQVTVSS , its polyreactivity (PSR sort gate) was high polyreactivity

Value of polyreactivity (PSR sort gate) reported for the sequence QVQLVESGGGLVQAGGSLRLSCAASGSTFQGYAMGWYRQAPGKEREFVAAISRSGGRTYYADSVKGRFTISRDNAKNTVYLQMNSLKPEDTAVYYCAALPYWEYGYWGQGTQVTVSS is high polyreactivity

So for QVQLVESGGGLVQAGGSLRLSCAASGFICFDYDMGWYRQAPGKERELVAAINWTGGSTDYADSVKGRFTISRDNAKNTVYLQMNSLKPEDTAVYYCAAEGQDGRFYWGQGTQVTVSS , the logged polyreactivity (PSR sort gate) turned out to be low polyreactivity

====

# assay summary: yeast display, Sf9 membrane polyspecificity reagent, FACS + sequencing; frameworks hold sequencing errors
readout type: polyreactivity (PSR sort gate)

QVQLVESRGGIVQAGGSLRLSCAASGRIFSRYAMGWSRQAPGKEREMVAAISWSGGSTFYADSVKGRFTISRDNAKNTVYLQMNSLKPEDTAVYDCAAYPRFYGGKDGEYGYWGQGTQVTVSS; high polyreactivity
QVQLVESGGGLVQAGGSLRLTCAASGSIFWGNAMGWYRQAPGKERELVATISWSAGSTYYADSVKGRFTISRDNAKNTVYLQMNSLKPEDTGVYYCATDFRHSTLYYYWGQRTQVTVSS; low polyreactivity
QVQLVESGGGLFQAGGILRLSCAASGIIFWDNAMGWYRQAPGKERELVAAISRSGSRTYYADSVKGRFTISRDNAKNTVYLQMNSLKPEDTAVYYCARRYRARGSMYYWGQGTQVTVSS; high polyreactivity
QVQLVESGGGLVQAGGSLRLSCAASGLTFLDYDMGWYRQAPGKERELVADIDWSGGNTYYADSVKGRFTISRDNAKNTVYLQMNSLKPEDTAVYYCNTVTEAVTRRYDYWGQGTQVTVSS; low polyreactivity
QVQLVESGGGLVQAGGSLRLSCAPSGSIFEINAMGWYRQAPGKERELVAAITGSGGSTHYADSVKGRFTISRDNAKKTVYLEMNSLKPEDTAVYYCAAVQRYQYGYWGQGTQVTVSS; low polyreactivity
QVQLVESGGGLVQAGGSLRLSCAASGRICSQYAMGWYRQAPGKERELVAAISTSGDRTYYADSVKGRFTISRDNAQNSGYLQLNSLKPEDTAVYYCAKDGPYTYGRDIYEYWGQGTQVTVSS; low polyreactivity

Input QVQLVESGGGLVQAGGSLRLSCAASGSTFDTYAMGWYRQAPGKERELVAVITTGGSTYYADSVKGRFTISRDNAKNTVNLQMNSLKPEDTAVYYCNAGYSVSRRRKYGYWGQGTQVTVSS . Output polyreactivity (PSR sort gate): high polyreactivity

Form field polyreactivity (PSR sort gate), entry QVQLVESGGGLVQSGGSLRLTCAASGIIFPRYAMGWYRQAPGKERELVAAITRRGGRTYYADSVKGRFTISRDNAKNTVYLQMNSLKPEDTAVYYCNADFISTRPPKATDEDYWGQGTQVTVSS : high polyreactivity

====

# assay summary: yeast display, Sf9 membrane polyspecificity reagent, FACS + sequencing; frameworks hold sequencing errors
readout type: polyreactivity (PSR sort gate)

QVQLVESGGGLVQAGGSLRLSCAASGSIFYKNAMGWYRQAPGKERELVAAITYSGGSTYYADSVKGRFTISRDNAKNTVYLQMNSLKTEDTAVYYCAADIGVYGERREEEYDYWGQGTQVTVSS; low polyreactivity
QVQLVESGGGLVQAGGSLRLSCAASGRIFLRNDMGWYRQAPGKERELFAGISSDGSTYYADSVKGRFTISRDNAKNTVYLQMNSLKPEDTAVYYCAAERWGNPTDYQFWRPYDYWGQGTKVTVSS; low polyreactivity
QLQLVESGGGLVQAGGSLRLSCAASGIIFIYNGMGWYRQAPGKERELVATINWSGGNTYYADSVKGRFTISRDNAKNTVYLQMNSLKPEDTAVYYCAVRGSRYWGYDYWGQGTQVTVSS; low polyreactivity
QVQLVESGGGLVQAGGSLRLSCAASGRTFSYYAMGCYRQAPGKERELVAAISQRGGSTYYADSVKGRFTISRDNAKNTVYLQMNSLKPEDTAVYYCAVLVSRYRYRVLDDYWGQGTQVTVSS; high polyreactivity

Query sequence follows.
// polyreactivity (PSR sort gate) value for QVQLVESGGGLVQAGGSLRLSCAASVSTFGRYVMGWYRQAPGKERELVAAISKNAGSTYYADSVKGRFTISRDNAKNTVYVQMNSLKPEDTAVYYCAADWRTKGYDSLGQGTQVTVSS : high polyreactivity
